Target: L-lactate dehydrogenase (Plasmodium falciparum (isolate CDC / Honduras))
Experiment: PfLDH activity inhibition – cell lysate, 3D7 strain, counter-screen for P. falciparum growth inhibition project (AID 2304);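 also: 0% = vehicle and 100% = reference inhibitor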
Conditions: P. falciparum 3D7 crude extract, LDH APAD/NBT absorbance; at 2 µM; active compounds read high
Could you please report measured inhibition for the items listed next?
Give the value, in units of %, as a plain number.

// query Quick one: inhibition for CC(CN(C)C)C(=O)Nc1cccc(-c2ccc(-c3nc4ccc(F)cc4[nH]3)s2)c1 (stereo not given) ?
// result -6

// query And what about the compound "Cc1cc(=O)c(-c2ccc(Oc3ccc(F)cc3)cc2)c(C)[nH]1" ?
// result 3

// query Let us now turn to "COc1cc2nc(N3CCC(CNC(=O)c4ccc(-c5ccc(-c6noc(C)n6)cc5C)cc4)CC3)nc(N)c2cc1OC"
// result -4

// query Repeat for the following compound: "Cc1cc(NCCCN2CCCC2=O)n2c(nc3ccccc32)c1C#N"
// result -1

// query What do you get for "COc1ccc(C=NNc2cc(C)nc3ccccc23)c2ccccc12" ?
// result -1

// query // next record "CN1CCC(NCc2ccc(-c3cnc(NCc4ccccc4)nc3)cc2)CC1"
// result 4

// query Query "CN(C)CCNC(=O)c1csc(Nc2ccc(Cl)c(Cl)c2)n1" next
// result -3

// query Likewise for "Oc1cc2c(cc1CN1CCN(Cc3ccccc3F)CC1)CCC2" ?
// result -3

// query Then what about the compound CN(C)c1ccc(-c2csc(C(=O)NCC3CCN(CC4CCCCC4)C3)c2)cc1 (stereo not given) ?
// result 1

// query Do the same for "CCc1cn2c3c(cc(C(=O)N[C@@H](Cc4cccc(Cl)c4)[C@H](O)CNC4CC4)cc13)N(C)S(=O)(=O)CC2" please
// result -1

###

Please go through the items and note down their inhibition.
Molecular target: L-lactate dehydrogenase (Plasmodium falciparum (isolate CDC / Honduras)) (UniProt Q27743)
Sequence (Q27743 whole entry, looked up): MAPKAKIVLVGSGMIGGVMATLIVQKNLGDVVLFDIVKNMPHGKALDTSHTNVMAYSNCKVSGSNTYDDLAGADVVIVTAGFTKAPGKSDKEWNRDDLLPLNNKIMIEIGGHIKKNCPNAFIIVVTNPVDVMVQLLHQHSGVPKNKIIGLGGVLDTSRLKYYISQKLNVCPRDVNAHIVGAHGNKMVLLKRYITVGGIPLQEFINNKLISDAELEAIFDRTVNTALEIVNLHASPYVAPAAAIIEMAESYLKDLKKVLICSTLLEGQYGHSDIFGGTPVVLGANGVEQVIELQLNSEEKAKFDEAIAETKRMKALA
Assay: PfLDH activity inhibition – cell lysate, 3D7 strain, counter-screen for P. falciparum growth inhibition project (AID 2304);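 also: 0% = vehicle and 100% = reference inhibitor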
Conditions: P. falciparum 3D7 crude extract, LDH APAD/NBT absorbance; at 2 µM; active compounds read high
Write the number in % without appending the unit.

// query Which value of inhibition has been reported for "O=[N+]([O-])c1ccc(C2=NN(S(=O)(=O)c3c(Cl)cc(Cl)cc3Cl)CCCC2)cc1" in the records?
// result 0

// query Entry "CN1CCN(c2ccc(Nc3c(C(N)=O)cnc4cc(-c5ccoc5)ccc34)cc2C(F)(F)F)CC1" please
// result -9

// query Again, but for "COc1cc(NC(=O)Nc2ccnc3ccccc23)cc(OC)c1"
// result -6

// query Note, next up: "O=C(NCCCN1CCN(c2cccc(Cl)c2)CC1)c1ccc(-c2nc3cc(Cl)c(Cl)cc3[nH]2)c(F)c1"
// result 2

// query Also "CCNC(=O)Nc1ccc(N(C)c2ccnc(NC3CC3)n2)cc1" ?
// result -5

// query Then this molecule: "COc1ccc2nc(-c3ccccc3)cc(NN=Cc3ccc([N+](=O)[O-])o3)c2c1"
// result -7

// query Request: "CCCCN(CCCC)CCCCNc1c2ccccc2nc2ccccc12"
// result 0

// query Another molecule: "O=C(Cc1cnc[nH]1)Nc1cccc(-c2cccc(-c3nc4ccc(F)cc4[nH]3)c2)c1"
// result 2

// query Now consider "CCCCCCn1c(Sc2ccc(C#N)c([N+](=O)[O-])c2)nnc1-c1cc(OC)cc(OC)c1" and answer again.
// result -5

// query "O=c1cc(NCCCNCc2cc(C(F)(F)F)ccc2Cl)[nH]c2ccccc12" ?
// result -2

// query Now consider "Clc1ccccc1/C=C/c1cncnc1Nc1ccc2nc(Cc3ccccc3)[nH]c2c1" and answer again.
// result -1

// query Quick one: "Clc1ccc2c(NN=Cc3ccco3)ccnc2c1"
// result -4

// query // repeat for "CC(C)C[C@H](NC(=O)c1cccc(F)c1)C(=O)N[C@H](/C=N/NC(=O)c1ccccc1)CCc1ccccc1" and report
// result 2

// query Try this molecule next: "N#Cc1ccc(-c2ccc(C(=O)NCCCCN3CCC(c4ccc5c(c4OCC(N)=O)CCCC5)CC3)cc2)cc1"
// result -3

// query Similarly, "COc1ccc(-c2csc(NC(=O)CCC(=O)O)n2)cc1OC" ?
// result 5

// query Now consider Nc1nc(N)c2nc(C3CC=CCC3)c(N)nc2n1 (stereo unspecified) .
// result -5

// query Lookup OC(CNc1ccnc(Nc2ccccc2)n1)c1cccc(C(F)(F)F)c1 (stereo unspecified)
// result -2

// query Likewise for CC(CCCCOCCc1ccccc1)NCC(O)c1cc(Cl)c(N)c(Cl)c1 (stereo unspecified) ?
// result -1

// query "CCc1ccccc1N1CCN(CCCC(=O)c2ccc(NC(=O)c3cc(Cl)cc(Cl)c3)cc2)CC1" ?
// result 1

// query And for "CNc1nc(NN=Cc2ccccc2Cl)nc(Nc2cccc(C(F)(F)F)c2)n1" ?
// result 0

// query What do you get for OC(CNC1CCCCC1)Cn1c2ccc(Br)cc2c2cc(Br)ccc21 (stereo unspecified) ?
// result 3

// query Consider next the molecule "CCCOc1ccccc1C(=O)Nc1nonc1-c1ccc(OCC)c(OCC)c1" in the same way.
// result -4

// query Please give the result for "CC(C)COc1ccc(Cl)cc1Cc1ccc(-c2nc3ccc(CCN(C)C)cc3[nH]2)o1" too.
// result 3

// query "N#Cc1ccc(-c2ccc(C(=O)NCCCCN3CCC(n4cnc5ccccc54)CC3)cc2)cc1" ?
// result -3

// query Cool, now "NCc1ccc(CNCc2cccc(-c3ccc(-c4nc5ccc(C(F)(F)F)cc5[nH]4)cc3)c2)cc1"
// result -7

// query Would you mind doing "c1cc(CNCCc2ccncc2)cc(-c2ccc(-c3nc4ccccc4[nH]3)s2)c1" as well?
// result -3

// query Next entry: COc1cccc(C(O)CNc2ccnc(Nc3ccc(Cl)cc3)n2)c1 (stereo unspecified)
// result -7

// query Another: "CNC(=O)c1ccccc1Nc1nc(Nc2cccnc2)ncc1C"
// result 1

// query Moving on to the next molecule: Cc1nc(C(C)Nc2nncc(-c3ccc(Cl)cc3)n2)cs1 (stereo unspecified)
// result -2

// query And "O=C(C=Cc1ccc(F)cc1)N1CCN(S(=O)(=O)c2ccc(Cl)cc2)CC1" ?
// result -2

// query Also need "COc1ccc2nccc([C@@H](O)CN3CCC(NCc4cc5oc(=O)n(C)c5cc4F)CC3)c2c1" , thanks.
// result -2

// query // next record "Cc1sc(CNCCCNc2cc(=O)c3ccccc3[nH]2)cc1Br"
// result -3

// query Consider next the molecule "COc1cccc(C2(c3cccc(OC)c3)N=C(N)N(CCCc3ccccc3)C2=O)c1" in the same way.
// result 4

// query Do the same for "CCCc1cc(Cc2cnc(N)nc2N)cc(CCC)c1OCCCC(=O)OCC" please
// result -2

// query Please give the result for "O=C(Nc1cccc(CN2CCCN(Cc3ccsc3)CC2)c1)c1ccc(-c2ccccc2)cc1" too.
// result -4

// query // next record "O=c1cc(NCCCNCc2cccc(C(F)(F)F)c2Cl)[nH]c2ccccc12"
// result -2

// query "NC(N)=NC(=O)Nc1cc(Br)c(Cl)c(Br)c1" ?
// result 4

// query And then "N#Cc1ccc(NC(=O)NC2CCN(CCCCCNC(=O)/C=C/c3ccc(Cl)c(Cl)c3)CC2)cc1" , what is it?
// result 0

// query And the next one, c1ccc(C(c2ccccc2)N2CCN(C(c3cccnc3)c3nnnn3C3CCCC3)CC2)cc1 (stereo unspecified) ?
// result 0

// query Lookup "COc1ccc(Cl)cc1-c1nc(C(=O)NCCN2CCCCC2)c(C(C)C)s1"
// result -3

// query Same read-out for "O=C(C1CCN(c2nnnn2-c2ccccc2)CC1)N1CCc2ccccc2C1" ?
// result -9
